# target: H. sapiens HLTF (Homo sapiens, UniProt Q14527)
# Sequence (Q14527 1-1009): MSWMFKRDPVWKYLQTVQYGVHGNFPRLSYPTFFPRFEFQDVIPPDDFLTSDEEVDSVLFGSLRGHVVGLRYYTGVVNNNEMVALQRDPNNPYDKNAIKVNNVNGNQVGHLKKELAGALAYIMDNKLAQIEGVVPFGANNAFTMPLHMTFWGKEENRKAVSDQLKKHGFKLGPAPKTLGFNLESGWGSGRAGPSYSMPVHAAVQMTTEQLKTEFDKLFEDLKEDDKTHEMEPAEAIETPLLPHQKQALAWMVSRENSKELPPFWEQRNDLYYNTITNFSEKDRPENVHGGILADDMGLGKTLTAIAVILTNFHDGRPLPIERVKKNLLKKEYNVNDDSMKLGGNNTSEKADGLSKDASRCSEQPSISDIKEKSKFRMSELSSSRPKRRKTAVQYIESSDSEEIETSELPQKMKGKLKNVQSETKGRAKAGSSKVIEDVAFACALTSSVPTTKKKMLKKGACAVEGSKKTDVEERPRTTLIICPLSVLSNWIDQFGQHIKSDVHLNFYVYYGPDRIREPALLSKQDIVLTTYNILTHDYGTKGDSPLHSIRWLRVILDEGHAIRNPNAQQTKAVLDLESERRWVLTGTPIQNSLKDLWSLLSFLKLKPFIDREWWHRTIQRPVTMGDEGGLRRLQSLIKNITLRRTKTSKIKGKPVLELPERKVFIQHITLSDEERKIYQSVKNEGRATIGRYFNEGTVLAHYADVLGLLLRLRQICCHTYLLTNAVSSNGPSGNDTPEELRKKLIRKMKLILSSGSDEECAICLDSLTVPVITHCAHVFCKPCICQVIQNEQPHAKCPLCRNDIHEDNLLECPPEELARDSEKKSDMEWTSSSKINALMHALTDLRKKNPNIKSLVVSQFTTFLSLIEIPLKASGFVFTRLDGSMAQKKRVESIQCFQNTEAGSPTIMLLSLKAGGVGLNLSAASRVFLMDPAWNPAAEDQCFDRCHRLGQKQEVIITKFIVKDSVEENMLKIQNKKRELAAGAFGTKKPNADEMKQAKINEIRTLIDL
recordedMetric: IC50 (µM)

[[record]]
molecule = "CN(C)CCCNCC(O)Cn1c2ccc(Cl)cc2c2cc(Cl)ccc21 (stereo not shown) [54i-1]"
target = "H. sapiens HLTF (Homo sapiens, UniProt Q14527)"
reading = 377

